// pEC50 lookup, one value per entry
Biological target: UniProt P48281
Test: luciferase reporter transactivation assay in HepG2-NTCP cells, full-length mVDR with CYP3A4-PXRE-Luc
Conditions: read-out: Mouse VDR EC50 ± SD; HepG2-NTCP cells, luciferase reporter
pEC50 is defined as minus the log10 of a concentration measured in mol/L.

Query: State its pEC50 for this molecule: C=C1CC[C@H](O)C/C1=C/C=C1\CCC[C@]2(C)[C@@H]([C@H](C)CCCC(C)(C)O)CC[C@@H]12 [25-Hydroxyvitamin D3]
Result: 6.22

Query: State its pEC50 for this molecule: C=C1CC[C@H](O)C/C1=C/C=C1\CCC[C@]2(C)[C@@H]([C@H](C)CC[C@@H](O)C(C)(C)O)CC[C@@H]12 [24(R),25-(OH)2-Vitamin D3]
Result: 6.52

====

Molecular target: Zebrafish VDR (Danio rerio)
Sequence (Q9PTN2 121-453): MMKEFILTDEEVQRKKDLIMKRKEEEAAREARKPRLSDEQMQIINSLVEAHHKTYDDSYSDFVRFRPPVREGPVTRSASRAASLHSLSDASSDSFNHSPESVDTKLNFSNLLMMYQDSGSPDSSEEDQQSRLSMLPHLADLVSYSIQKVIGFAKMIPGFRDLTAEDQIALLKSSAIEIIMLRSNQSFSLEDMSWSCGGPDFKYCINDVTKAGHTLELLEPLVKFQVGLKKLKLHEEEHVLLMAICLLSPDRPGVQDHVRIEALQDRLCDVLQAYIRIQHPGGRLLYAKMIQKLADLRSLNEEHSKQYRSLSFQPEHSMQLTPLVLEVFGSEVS
Experiment: luciferase reporter transactivation assay in HepG2-NTCP cells, GAL4/zfVDR LBD chimera with tk-UAS-Luc
Format: cell-based
Details: screening for activators, at least three concentrations of each drug
experimental readout: Effect on zebrafish VDR

molecule | observed
CC1=C(/C=C/C(C)=C/C=C/C(C)=C/C(=O)Nc2ccc(O)cc2)C(C)(C)CCC1 [4-Hydroxyphenylretinamide] | No effect
C[C@]12CC[C@@H]3c4ccc(O)cc4CC[C@H]3[C@@H]1CC[C@@H]2O [17b-Estradiol, 17β-estradiol] | No effect
C[C@H](CCCO)[C@H]1CC[C@H]2[C@@H]3[C@H](O)C[C@@H]4C[C@H](O)CC[C@]4(C)[C@H]3C[C@H](O)[C@]12C [5b-Cholan-3a,7a,12a,24-tetrol] | No effect

====

// EC50 lookup, one value per entry
Target: Mouse VDR (Mus musculus, UniProt P48281)
Sequence (P48281 whole entry): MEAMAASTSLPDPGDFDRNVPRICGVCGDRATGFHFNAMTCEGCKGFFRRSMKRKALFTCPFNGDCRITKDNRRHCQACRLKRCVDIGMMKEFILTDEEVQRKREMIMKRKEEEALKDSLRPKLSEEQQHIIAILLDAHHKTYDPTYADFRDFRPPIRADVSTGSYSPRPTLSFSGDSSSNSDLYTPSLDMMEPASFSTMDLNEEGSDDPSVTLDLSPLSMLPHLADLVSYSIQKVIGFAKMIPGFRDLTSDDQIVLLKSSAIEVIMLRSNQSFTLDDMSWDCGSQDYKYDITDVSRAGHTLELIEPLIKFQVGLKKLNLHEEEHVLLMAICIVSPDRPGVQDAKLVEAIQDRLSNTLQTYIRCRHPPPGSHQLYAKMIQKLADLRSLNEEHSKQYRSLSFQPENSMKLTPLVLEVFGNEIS
Experiment: luciferase reporter transactivation assay in HepG2-NTCP cells, full-length mVDR with CYP3A4-PXRE-Luc
Don't forget the unit after the number, please.

Query: State its EC50 for this compound: C=C1/C(=C\C=C2/CCC[C@]3(C)[C@@H]([C@H](C)CCCC(C)C)CC[C@@H]23)C[C@@H](O)C[C@@H]1O [1α-Hydroxyvitamin D3]
Result: 0.3 nM

Query: State its EC50 for this compound: C=C1/C(=C\C=C2/CCC[C@]3(C)[C@@H]([C@H](C)/C=C/[C@H](C)C(C)C)CC[C@@H]23)C[C@@H](O)C[C@@H]1O [1α-Hydroxyvitamin D2]
Result: 0.8 nM

====

Molecular target: Zebrafish VDR (Danio rerio)
Assay: luciferase reporter transactivation assay in HepG2-NTCP cells, GAL4/zfVDR LBD chimera with tk-UAS-Luc
Conditions: HepG2-NTCP cells, luciferase reporter; read-out: Zebrafish VDR EC50 ± SD
experimental readout: pEC50
pEC50 is defined as minus the log10 of a concentration measured in mol/L.

Completed entries (count: 3):
compound | pEC50
C=C1/C(=C\C=C2/CCC[C@]3(C)[C@@H]([C@H](C)CCCC(C)C)CC[C@@H]23)C[C@@H](O)C[C@@H]1O [1α-Hydroxyvitamin D3] | 7.74
C=C1/C(=C\C=C2/CCC[C@]3(C)[C@@H]([C@H](C)/C=C/[C@H](C)C(C)C)CC[C@@H]23)C[C@@H](O)C[C@@H]1O [1α-Hydroxyvitamin D2] | 7.59
C=C1CC[C@H](O)C/C1=C/C=C1\CCC[C@]2(C)[C@@H]([C@H](C)CCCC(C)(C)O)CC[C@@H]12 [25-Hydroxyvitamin D3] | 5.14

API: the following record is the query input.
Query: State its pEC50 for this compound: C=C1CC[C@H](O)C/C1=C/C=C1\CCC[C@]2(C)[C@@H]([C@H](C)CC[C@@H](O)C(C)(C)O)CC[C@@H]12 [24(R),25-(OH)2-Vitamin D3]
Result: 6.15

====

Target: UniProtKB O13124
Sequence (O13124 90-422): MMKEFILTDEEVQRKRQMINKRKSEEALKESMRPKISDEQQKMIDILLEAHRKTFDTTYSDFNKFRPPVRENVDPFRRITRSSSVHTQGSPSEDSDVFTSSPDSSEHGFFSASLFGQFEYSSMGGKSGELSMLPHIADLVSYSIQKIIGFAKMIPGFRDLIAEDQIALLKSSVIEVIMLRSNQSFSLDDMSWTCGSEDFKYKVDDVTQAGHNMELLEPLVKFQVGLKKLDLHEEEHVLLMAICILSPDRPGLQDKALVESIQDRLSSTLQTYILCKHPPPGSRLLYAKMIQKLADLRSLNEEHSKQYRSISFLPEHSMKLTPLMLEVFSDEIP
Assay: luciferase reporter transactivation assay in HepG2-NTCP cells, GAL4/xlVDR LBD chimera with tk-UAS-Luc
Format: cell-based
Settings: HepG2-NTCP cells, luciferase reporter; unit not given; also cells saying No effect

structure smiles | Xenopus VDR EC50 ± SD
C[C@H](CCC(=O)NCC(=O)O)[C@H]1CC[C@H]2[C@@H]3CC[C@@H]4C[C@H](O)CC[C@]4(C)[C@H]3CC[C@]12C | No effect
C[C@H](CCCO)[C@H]1CC[C@H]2[C@@H]3[C@H](O)C[C@H]4C[C@H](O)CC[C@]4(C)[C@H]3C[C@H](O)[C@]12C | No effect
Clc1cc2c(cc1Cl)Oc1cc(Cl)c(Cl)cc1O2 | No effect

====

Target: Zebrafish VDR (Danio rerio)
Assay: luciferase reporter transactivation assay in HepG2-NTCP cells, GAL4/zfVDR LBD chimera with tk-UAS-Luc
Assay type: cell-based
Conditions: screening for activators, at least three concentrations of each drug
Counter-ions that a name gives are not always drawn.
experimental readout: Effect on zebrafish VDR

Completed entries (count: 10):
compound | Effect on zebrafish VDR
CC1=C(/C=C/C(C)=C/C=C/C(C)=C\C(=O)O)C(C)(C)CCC1 [13-cis Retinoic acid] | No effect
CC(CCC(=O)NCC(=O)O)C1CCC2C3C(O)CC4CC(O)CCC4(C)C3CCC12C (stereo not drawn) | No effect
C[C@]12CC[C@H]3[C@@H](C[C@H](F)C4=CC(=O)CC[C@@]43C)[C@@H]1CC[C@@H]2O | No effect
CC(=O)N[C@@H](CSC/C=C(\C)CC/C=C(\C)CC/C=C(\C)CCC=C(C)C)C(=O)O | No effect
C[C@H](CCC(=O)O)[C@H]1CC[C@H]2[C@@H]3C[C@@H](O)[C@@H]4C[C@H](O)CC[C@]4(C)[C@H]3CC[C@]12C | No effect
C[C@]12CC[C@@H](O)C[C@H]1CC[C@@H]1[C@@H]2[C@@H](O)C[C@]2(C)C(=O)CC[C@@H]12 [5b-Androstan-3a,11b-17-one] | No effect
CC(C)CCC[C@@H](C)[C@H]1CC[C@H]2[C@@H]3CC=C4C[C@@H](OS(=O)(=O)O)CC[C@]4(C)[C@H]3CC[C@]12C [Cholesteryl sulfate (5-cholesten-3b-ol), Cholesteryl sulfate] | No effect
C[C@H](CCC(=O)O)[C@H]1CC[C@H]2[C@@H]3CC[C@@H]4C[C@H](O)CC[C@]4(C)[C@H]3CC(=O)[C@]12C | No effect
CC(C)(c1ccc(OCC2CO2)cc1)c1ccc(OCC2CO2)cc1 (stereo not drawn) | No effect
CC1=C(/C=C/C(C)=C/C=C/C(C)=C\CO)C(C)(C)CCC1 [13-cis-Retinol] | No effect

Query: Report Effect on zebrafish VDR under test system Zebrafish VDR (Danio rerio) for C[C@]12CC[C@@H](O)C[C@H]1CC[C@@H]1[C@@H]2C(=O)C[C@]2(C)C(=O)CC[C@@H]12 .
Result: No effect

Query: Report Effect on zebrafish VDR under test system Zebrafish VDR (Danio rerio) for CC(=O)N[C@@H](CSC/C=C(\C)CC/C=C(\C)CCC=C(C)C)C(=O)O .
Result: No effect

Query: Report Effect on zebrafish VDR under test system Zebrafish VDR (Danio rerio) for CC(CCC(=O)NCC(=O)O)C1CCC2C3CCC4CC(O)CCC4(C)C3CC(O)C12C (stereo not drawn) .
Result: No effect
